Reference source: ChEMBL document CHEMBL1157604

target.of.assay: Sodium-dependent dopamine transporter (Homo sapiens)
Sequence (Q01959 whole entry): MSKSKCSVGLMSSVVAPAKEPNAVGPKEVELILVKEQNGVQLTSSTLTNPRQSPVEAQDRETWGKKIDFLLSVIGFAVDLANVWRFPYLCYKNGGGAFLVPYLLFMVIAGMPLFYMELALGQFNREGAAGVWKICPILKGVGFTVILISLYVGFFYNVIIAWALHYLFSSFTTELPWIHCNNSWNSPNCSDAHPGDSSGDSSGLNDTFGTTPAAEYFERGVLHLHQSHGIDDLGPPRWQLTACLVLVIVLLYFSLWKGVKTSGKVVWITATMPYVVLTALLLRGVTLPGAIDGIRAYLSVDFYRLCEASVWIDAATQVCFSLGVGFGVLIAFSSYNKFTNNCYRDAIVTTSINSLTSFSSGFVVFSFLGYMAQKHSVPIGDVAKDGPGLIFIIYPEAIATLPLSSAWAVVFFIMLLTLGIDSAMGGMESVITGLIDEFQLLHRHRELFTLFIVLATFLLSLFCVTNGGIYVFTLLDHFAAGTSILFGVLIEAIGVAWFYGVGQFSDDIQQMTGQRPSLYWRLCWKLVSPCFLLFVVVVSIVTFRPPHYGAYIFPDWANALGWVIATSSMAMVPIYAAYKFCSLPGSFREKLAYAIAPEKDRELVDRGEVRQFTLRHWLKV
assay.details: Inhibition of [3H]dopamine uptake at human DAT expressed in HEK293 cells
pIC50: −log10 of the molar value.
Assign fulfilled whenever pIC50 does not fall below 6; assign not fulfilled whenever it does.

- compound: "CCC(NC(C)(C)C)C(=O)c1ccc(Cl)c(Cl)c1 (stereo unspecified)"
  target.of.assay: "Sodium-dependent dopamine transporter (Homo sapiens)"
  category.label: "fulfilled"
- compound: "CC(NC(C)(C)C)C(=O)c1cccc(Br)c1 (stereo unspecified)"
  target.of.assay: "Sodium-dependent dopamine transporter (Homo sapiens)"
  category.label: "fulfilled"
- compound: "CC(NC(C)(C)C)C(=O)c1ccc(Cl)c(Cl)c1 (stereo unspecified)"
  target.of.assay: "Sodium-dependent dopamine transporter (Homo sapiens)"
  category.label: "fulfilled"
- compound: "CCCC(NC(C)(C)C)C(=O)c1ccc(Cl)c(Cl)c1 (stereo unspecified)"
  target.of.assay: "Sodium-dependent dopamine transporter (Homo sapiens)"
  category.label: "fulfilled"
- compound: "CC(C(=O)c1cccc(Cl)c1)N(C)C (stereo unspecified)"
  target.of.assay: "Sodium-dependent dopamine transporter (Homo sapiens)"
  category.label: "not fulfilled"
- compound: "Cc1ccc(C(=O)C(C)NC(C)(C)C)cc1Cl (stereo unspecified)"
  target.of.assay: "Sodium-dependent dopamine transporter (Homo sapiens)"
  category.label: "fulfilled"
- compound: "CC(C(=O)c1cccc([N+](=O)[O-])c1)N1CCCCC1 (stereo unspecified)"
  target.of.assay: "Sodium-dependent dopamine transporter (Homo sapiens)"
  category.label: "not fulfilled"
- compound: "CCCC(NC(C)(C)C)C(=O)c1cccc(Cl)c1 (stereo unspecified)"
  target.of.assay: "Sodium-dependent dopamine transporter (Homo sapiens)"
  category.label: "fulfilled"
- compound: "COc1cccc(C(=O)C(C)NC2CCCC2)c1 (stereo unspecified)"
  target.of.assay: "Sodium-dependent dopamine transporter (Homo sapiens)"
  category.label: "not fulfilled"
- compound: "CC(NC(C)(C)C)C(=O)c1cccc(F)c1 (stereo unspecified)"
  target.of.assay: "Sodium-dependent dopamine transporter (Homo sapiens)"
  category.label: "not fulfilled"
- compound: "CCC(NC(C)(C)C)C(=O)c1cccc(Cl)c1 (stereo unspecified)"
  target.of.assay: "Sodium-dependent dopamine transporter (Homo sapiens)"
  category.label: "fulfilled"
- compound: "COc1cccc(C(=O)C(C)NC(C)(C)C)c1 (stereo unspecified)"
  target.of.assay: "Sodium-dependent dopamine transporter (Homo sapiens)"
  category.label: "not fulfilled"
- compound: "CC(C(=O)c1cccc(Cl)c1)N(C)C(C)(C)C (stereo unspecified)"
  target.of.assay: "Sodium-dependent dopamine transporter (Homo sapiens)"
  category.label: "not fulfilled"
- compound: "CC(NC(C)(C)C)C(=O)c1ccc(F)c(F)c1 (stereo unspecified)"
  target.of.assay: "Sodium-dependent dopamine transporter (Homo sapiens)"
  category.label: "not fulfilled"
- compound: "Cc1ccc(C(=O)C(C)NC(C)(C)C)cc1 (stereo unspecified)"
  target.of.assay: "Sodium-dependent dopamine transporter (Homo sapiens)"
  category.label: "not fulfilled"

----------
log10(IC50) values for the compounds below.
target.of.assay: Sodium-dependent noradrenaline transporter (Homo sapiens)
Sequence (P23975 whole entry): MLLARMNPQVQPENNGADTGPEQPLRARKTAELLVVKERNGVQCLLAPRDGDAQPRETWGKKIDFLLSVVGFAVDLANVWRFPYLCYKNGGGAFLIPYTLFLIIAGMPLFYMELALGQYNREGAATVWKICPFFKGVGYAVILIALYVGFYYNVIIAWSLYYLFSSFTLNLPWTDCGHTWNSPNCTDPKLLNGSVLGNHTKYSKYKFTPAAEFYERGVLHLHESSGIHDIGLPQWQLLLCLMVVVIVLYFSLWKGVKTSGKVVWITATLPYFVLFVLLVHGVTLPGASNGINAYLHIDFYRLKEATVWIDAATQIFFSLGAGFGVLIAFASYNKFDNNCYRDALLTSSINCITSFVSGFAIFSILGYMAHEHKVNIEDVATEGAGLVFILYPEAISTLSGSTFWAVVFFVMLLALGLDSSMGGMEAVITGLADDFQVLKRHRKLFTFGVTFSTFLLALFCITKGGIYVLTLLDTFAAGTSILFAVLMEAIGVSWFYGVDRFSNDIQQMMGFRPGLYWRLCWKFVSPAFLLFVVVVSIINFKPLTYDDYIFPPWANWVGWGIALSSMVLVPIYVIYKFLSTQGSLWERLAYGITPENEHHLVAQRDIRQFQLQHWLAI
assay.details: Inhibition of [3H]norepinephrine uptake at human NET expressed in HEK293 cells
Assay type: cell-based
quantity.measured: log10(IC50) (log10 of the value in nM)

- compound: "CC(C(=O)c1cccc(Cl)c1)N(C)C(C)(C)C (centres undefined)"
  log10(IC50): 3.20
- compound: "CCC(NC(C)(C)C)C(=O)c1ccc(Cl)c(Cl)c1 (centres undefined)"
  log10(IC50): 2.59
- compound: "Cc1cccc(C(=O)C(C)NC(C)(C)C)c1 (centres undefined)"
  log10(IC50): 3.79
- compound: "CC(NC(C)(C)C)C(=O)c1ccc(Cl)c(Cl)c1 (centres undefined)"
  log10(IC50): 3.22
- compound: "COc1cccc(C(=O)C(C)NC2CCCC2)c1 (centres undefined)"
  log10(IC50): 3.91
- compound: "Cc1ccc(C(=O)C(C)NC(C)(C)C)cc1Cl (centres undefined)"
  log10(IC50): 3.31
- compound: "Cc1cccc(C(=O)C(C)NC2CCCC2)c1 (centres undefined)"
  log10(IC50): 3.94
- compound: "CC(NC1CCCC1)C(=O)c1cccc(Br)c1 (centres undefined)"
  log10(IC50): 3.40
- compound: "CCCC(NC(C)(C)C)C(=O)c1cccc(Cl)c1 (centres undefined)"
  log10(IC50): 2.57
- compound: "CC(NC(C)(C)C)C(=O)c1cccc(F)c1 (centres undefined)"
  log10(IC50): 3.81
- compound: "CC(C(=O)c1cccc(Cl)c1)N1CCCCC1 (centres undefined)"
  log10(IC50): 3.40
- compound: "CC(NC1CCCC1)C(=O)c1cccc(F)c1 (centres undefined)"
  log10(IC50): 3.45
- compound: "CC(C(=O)c1cccc(Cl)c1)N(C)C (centres undefined)"
  log10(IC50): 3.18
- compound: "CC(NC(C)(C)C)C(=O)c1ccc(Cl)cc1 (centres undefined)"
  log10(IC50): 3.32
- compound: "CC(NC(C)(C)C)C(=O)c1ccc(F)c(F)c1 (centres undefined)"
  log10(IC50): 3.81
- compound: "CC(NC(C)(C)C)C(=O)c1cccc(Br)c1 (centres undefined)"
  log10(IC50): 3.75
- compound: "CC(NC(C)(C)C)C(=O)c1cc(Cl)cc(Cl)c1 (centres undefined)"
  log10(IC50): 4.15
- compound: "Cc1cc(C(=O)C(C)NC(C)(C)C)ccc1Br (centres undefined)"
  log10(IC50): 3.86
- compound: "CC(NC(C)(C)C)C(=O)c1ccc(Br)cc1 (centres undefined)"
  log10(IC50): 3.40
